Test system: HS 578T breast
PROTOCOL DESCRIPTION: NCI-60 one-dose screen, 48 h
CONDITION LABEL: 10 µM unless noted
This is part of a sample that, as a whole, favours compounds with a hit. Of some 83,000 tested, about 20% had one in any assay. Calls of active or inactive are those of the source. The calls were made as follows: active = growth percent below 10; inactive = the rest.
Possible outcomes: active, inactive

{"columns": ["MOLECULE", "LABEL VALUE"],
 "data": [
  ["CC(=O)Nc1cccc(-c2ccc3c(c2)NC(=O)/C3=C\\c2ccc[nH]2)c1", "inactive"],
  ["O=C(Nc1ccccc1C(=O)N/N=C(\\c1ccccc1)c1ccccn1)c1ccc(F)cc1", "inactive"],
  ["C[C@H]1[C@H](C)CC[C@]2(C(=O)Nc3ccc4ncccc4c3)CC[C@]3(C)C(=CC[C@@H]4[C@@]5(C)CCCNC(C)(C)[C@@H]5CC[C@]43C)[C@H]12", "active"],
  ["Cn1c(-c2c(N)n(CCCN3CCOCC3)c3nc(C#N)c(C#N)nc23)nc2ccccc21", "inactive"],
  ["COCc1cnccc1NC1CCCCCC1", "inactive"],
  ["CC(=O)c1cc2c(N)c(C(=O)Nc3cccc4ccncc34)sc2nc1C", "inactive"],
  ["Cc1ccc(-n2cc(-c3ccccc3)c3c2N=NN2CCN=C32)cc1", "inactive"],
  ["O=C1Nc2ccccc2/C1=C\\c1c(-c2ccccc2)nc2ccccn12", "inactive"],
  ["N#C/C(=C\\c1ccc(C(F)(F)F)cc1)c1cc2ccccc2[nH]1", "inactive"],
  ["CCCCCCOc1ccc(/C=N/Nc2cc(C)nc3ccc(Cl)cc23)cc1", "inactive"],
  ["ClC1=C(Br)C(Br)(Br)C(=C(Br)Br)C1(Br)Br", "inactive"],
  ["C=C1C(=O)O[C@H]2[C@H]1CC/C(CNC(=O)CCc1ccc(OC)cc1)=C\\CC[C@@]1(C)O[C@@H]21", "inactive"],
  ["CNC(=O)c1cccc(Cn2nc(C)c(NC(=O)c3ccc(COc4ccc(C(F)(F)F)cc4C)cc3)c2C)n1", "inactive"],
  ["CC1=C(C(=O)/C=C/c2ccc(N(C)C)cc2)C(c2ccccc2)NC(=S)N1 (stereo unspecified)", "inactive"],
  ["CCCCCN1C=C/C(=C\\C(=O)N2CCCc3ccccc32)c2ccccc21", "inactive"],
  ["Cc1ccc(-c2[nH][nH]c(=O)c2-c2nc3ccccc3s2)cc1", "inactive"],
  ["O=C(Cc1ccc(/C=C/C(=O)c2ncc[nH]2)cc1)Nc1ccc(Cl)cc1", "active"],
  ["CC[C@]12C=CCN3CC[C@@]4(c5cc(NC(=O)CCC(=O)O[C@H]6CC[C@H]7[C@@H]8CCC9=CC(=O)CC[C@@H]9[C@H]8CC[C@]67C)c(OC)cc5N(C)[C@H]4[C@@](O)(C(=O)OC)[C@@H]1OC(C)=O)[C@@H]32", "inactive"],
  ["COC(=O)CNC(=O)[C@]12CCC(C)(C)C[C@H]1C1=CC[C@@H]3[C@@]4(C)Cc5c([nH]c6ccccc56)C(C)(C)[C@@H]4CC[C@@]3(C)[C@]1(C)CC2", "inactive"],
  ["CCN(c1ccccc1)S(=O)(=O)c1cc([N+](=O)[O-])ccc1Cl", "inactive"],
  ["COc1cc2c(=O)n(CCN(C)C)c3c4cc5c(cc4ccc3c2cc1OC)OCO5", "active"],
  ["COc1cccc(-c2nc3occn3c2-c2ccnc(NCCCNS(=O)(=O)c3ccc(C(F)(F)F)cc3)n2)c1", "inactive"],
  ["C=C1C(=O)O[C@H]2[C@H]1CC/C(COC(=O)NCC(C)c1ccc(CC(C)C)cc1)=C\\CC[C@@]1(C)O[C@@H]21 (stereo partly specified)", "inactive"],
  ["O=C(/C=C/c1ccc(Cl)cc1)c1ccc(NC(=O)N2CCN(c3cc4c(cc3F)c(=O)c(C(=O)O)cn4C3CC3)CC2)cc1", "inactive"],
  ["COc1ccc(/C=C(\\C#N)n2nc3cccc(F)c3n2)cc1", "inactive"],
  ["O=c1ccc(-c2nc(N3CCOCC3)c3ccccc3n2)c[nH]1", "inactive"],
  ["O=C1OC(Cc2ccccc2)C1c1ccccc1 (stereo unspecified)", "inactive"],
  ["COc1ccc(C(=O)NNc2nc(Cl)nc(N3CCN(C(c4ccccc4)c4ccccc4)CC3)n2)cc1", "inactive"],
  ["COc1ccc(-c2nc3sccn3c2/C=C/C(=O)c2ccc3c(c2)OCO3)cc1", "inactive"],
  ["O=S(=O)(NCCCNc1nccc(-c2c(-c3cccc(O)c3)nc3occn23)n1)c1ccc(Cl)cc1", "inactive"],
  ["O=C1Nc2cc(Cl)ccc2/C1=C\\c1c(-c2ccc(F)cc2)nc2ccccn12", "active"],
  ["CN(CCN(C)c1ccc(C(=N)N)cc1)c1ccc(C(=N)N)cc1", "inactive"],
  ["COc1ccc(-c2cnc3c(-c4cccc5ncccc45)cnn3c2)cc1", "inactive"],
  ["COc1cc(CC(=O)n2ncc3ccc(N)cc32)cc(OC)c1OC", "inactive"],
  ["C=C1C(=O)O[C@H]2[C@H]1CC/C(COC(=O)NCc1c[nH]c3ccc(F)cc13)=C\\CC[C@@]1(C)O[C@@H]21", "inactive"],
  ["O=C(CNCCN1CCOCC1)N1c2cccc3cccc(c23)N(C(=O)CNCCN2CCOCC2)C1c1cn(-c2ccccc2)nc1-c1cccc([N+](=O)[O-])c1", "inactive"]
]}
